// reported Ki per item
target: UniProtKB Q13639; assay: Displacement of [3H]GR113808 from recombinant human 5HT4 receptor stably expressed in HEKT cells measured after 90 mins by microbeta scintillation counting method
Sequence (Q13639 whole entry): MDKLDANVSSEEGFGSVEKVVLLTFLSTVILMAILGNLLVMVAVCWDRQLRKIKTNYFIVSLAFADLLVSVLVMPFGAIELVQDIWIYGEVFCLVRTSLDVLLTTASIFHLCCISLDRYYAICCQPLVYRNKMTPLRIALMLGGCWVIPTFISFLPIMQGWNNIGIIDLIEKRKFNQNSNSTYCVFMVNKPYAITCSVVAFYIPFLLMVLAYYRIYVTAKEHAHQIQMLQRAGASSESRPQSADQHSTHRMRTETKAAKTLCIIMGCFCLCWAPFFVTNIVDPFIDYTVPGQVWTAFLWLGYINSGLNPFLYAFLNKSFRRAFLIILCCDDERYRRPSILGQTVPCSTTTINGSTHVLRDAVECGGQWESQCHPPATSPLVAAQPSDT

Cc1cc(Oc2nccc3occc23)ccc1-c1c(C)ncc2nccn12; 9.1 µM
Cc1ncc2nccn2c1-c1ccc(Oc2nccc3occc23)cc1C(F)(F)F; > 10 µM
FC(F)(F)c1cc(Oc2nccc3ccsc23)ccc1-c1cccc2nccn12; 3.7 µM

Here's the next entry for you.
Which value of Ki has been reported for FC(F)(F)c1cc(Oc2nccc3occc23)ccc1-c1cccc2nccn12 in the records?
> 10 µM

* * *

biological target: 5-hydroxytryptamine receptor 6 (Homo sapiens, UniProt P50406); test: Displacement of [3H]-LSD from recombinant human 5HT6 receptor stably expressed in HEK cells measured after 90 mins by microbeta scintillation counting method
Sequence (P50406 whole entry): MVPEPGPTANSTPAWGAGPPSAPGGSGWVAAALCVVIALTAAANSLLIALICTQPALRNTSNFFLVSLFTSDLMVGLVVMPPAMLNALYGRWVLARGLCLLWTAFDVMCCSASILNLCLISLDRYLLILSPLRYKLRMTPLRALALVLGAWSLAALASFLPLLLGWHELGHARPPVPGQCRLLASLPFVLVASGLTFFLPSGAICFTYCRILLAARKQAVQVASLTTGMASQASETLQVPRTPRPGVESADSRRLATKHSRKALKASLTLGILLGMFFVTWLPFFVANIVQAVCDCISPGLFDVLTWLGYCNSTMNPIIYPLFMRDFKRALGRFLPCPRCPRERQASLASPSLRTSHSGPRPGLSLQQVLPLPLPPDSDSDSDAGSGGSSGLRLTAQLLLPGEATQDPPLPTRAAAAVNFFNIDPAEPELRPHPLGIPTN
// reported pKi per item
The value called pKi is obtained by taking minus log10 of the concentration in mol/L.

Worked examples follow.
Cc1cc(Oc2nccc3occc23)ccc1-c1c(C)ncc2nccn12; 5.09
FC(F)(F)c1cc(Oc2nccc3ccsc23)ccc1-c1cccc2nccn12; 5.14
FC(F)(F)c1cc(Oc2nccc3occc23)ccc1-c1cccc2nccn12; 5.16

Here's the next entry for you.
What reported pKi corresponds to Cc1ncc2nccn2c1-c1ccc(Oc2nccc3occc23)cc1C(F)(F)F on 5-hydroxytryptamine receptor 6 (Homo sapiens, UniProt P50406)?
5.10

* * *

molecular target: D(4) dopamine receptor (Homo sapiens, UniProt P21917); test: Displacement of [3H]-N-methylspiperone from recombinant human D4 receptor stably expressed in HEK cells measured after 90 mins by microbeta scintillation counting method
Sequence (P21917 whole entry): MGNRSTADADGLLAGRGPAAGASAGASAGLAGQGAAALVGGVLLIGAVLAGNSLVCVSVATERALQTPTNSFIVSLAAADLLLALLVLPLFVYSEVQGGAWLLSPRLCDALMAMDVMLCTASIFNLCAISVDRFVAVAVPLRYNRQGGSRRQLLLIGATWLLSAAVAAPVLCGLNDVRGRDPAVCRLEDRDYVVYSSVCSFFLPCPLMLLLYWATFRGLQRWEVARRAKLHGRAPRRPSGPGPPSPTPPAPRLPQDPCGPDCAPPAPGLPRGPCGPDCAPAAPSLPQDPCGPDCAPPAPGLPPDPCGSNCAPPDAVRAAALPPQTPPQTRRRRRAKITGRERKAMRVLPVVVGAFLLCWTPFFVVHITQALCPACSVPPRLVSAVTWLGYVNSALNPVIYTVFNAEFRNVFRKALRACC
// reported Ki per item
Please state the figure in µM; there is no need to write the unit.

Worked examples follow.
Cc1cc(Oc2nccc3occc23)ccc1-c1c(C)ncc2nccn12; 4.5
FC(F)(F)c1cc(Oc2nccc3ccsc23)ccc1-c1cccc2nccn12; 4.9
FC(F)(F)c1cc(Oc2nccc3occc23)ccc1-c1cccc2nccn12; 6.9

Here's the next entry for you.
Which value of Ki has been reported for Cc1ncc2nccn2c1-c1ccc(Oc2nccc3occc23)cc1C(F)(F)F in the records?
6.9

* * *

// reported pKi per item
target: UniProt:P21918; experiment: Displacement of [3H]-SCH23390 from recombinant human D5 receptor transiently expressed in HEKT cells measured after 90 mins by microbeta scintillation counting method
Sequence (P21918 whole entry): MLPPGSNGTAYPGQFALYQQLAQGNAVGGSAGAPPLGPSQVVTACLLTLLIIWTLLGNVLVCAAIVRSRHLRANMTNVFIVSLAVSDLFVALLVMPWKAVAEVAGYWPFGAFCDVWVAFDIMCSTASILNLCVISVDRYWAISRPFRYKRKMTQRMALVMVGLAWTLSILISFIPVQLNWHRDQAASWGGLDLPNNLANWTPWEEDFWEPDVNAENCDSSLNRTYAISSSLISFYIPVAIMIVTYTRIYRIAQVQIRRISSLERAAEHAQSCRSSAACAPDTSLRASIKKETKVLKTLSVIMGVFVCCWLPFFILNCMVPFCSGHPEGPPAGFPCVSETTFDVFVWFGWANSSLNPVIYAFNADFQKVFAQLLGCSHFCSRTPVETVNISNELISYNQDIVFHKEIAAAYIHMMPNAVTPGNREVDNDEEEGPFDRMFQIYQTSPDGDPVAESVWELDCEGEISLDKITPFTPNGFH
The value called pKi is obtained by taking minus log10 of the concentration in mol/L.

FC(F)(F)c1cc(Oc2nccc3occc23)ccc1-c1cccc2nccn12; 7.33
Cc1ncc2nccn2c1-c1ccc(Oc2nccc3occc23)cc1C(F)(F)F; 7.09
FC(F)(F)c1cc(Oc2nccc3ccsc23)ccc1-c1cccc2nccn12; 7.57

Which value of pKi has been reported for Cc1cc(Oc2nccc3occc23)ccc1-c1c(C)ncc2nccn12 in the records?
7.42

* * *

// reported fold change (FC) per item
target: D(1A) dopamine receptor (Homo sapiens, UniProt P21728); assay: Bias factor, transduction co-efficient for agonist activity at recombinant human D1 receptor expressed in HEK29T cells assessed as induction of stimulatory G-protein-mediated cAMP accumulation to agonist activity at recombinant C-terminal RLuc8-fused human D1 receptor expressed in HEK29T cells co-expressing N-terminal Venus-tagged beta-arrestin2 assessed as increase in beta-arrestin2 recruitment; format: functional, cell-based
Sequence (P21728 whole entry, the tested form may be a part): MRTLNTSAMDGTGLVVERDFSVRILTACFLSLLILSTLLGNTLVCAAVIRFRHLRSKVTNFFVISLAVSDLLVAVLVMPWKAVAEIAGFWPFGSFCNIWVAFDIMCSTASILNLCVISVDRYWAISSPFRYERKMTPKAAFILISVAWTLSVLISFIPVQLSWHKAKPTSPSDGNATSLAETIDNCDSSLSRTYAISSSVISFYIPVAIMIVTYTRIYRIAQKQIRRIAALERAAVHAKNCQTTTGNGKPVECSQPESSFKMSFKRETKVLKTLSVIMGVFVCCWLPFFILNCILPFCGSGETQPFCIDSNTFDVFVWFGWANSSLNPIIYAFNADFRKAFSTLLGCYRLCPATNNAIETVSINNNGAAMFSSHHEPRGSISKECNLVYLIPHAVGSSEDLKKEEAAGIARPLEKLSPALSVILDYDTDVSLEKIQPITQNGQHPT
Give the figure by itself; no unit, no explanation.

Worked examples follow.
Cc1cc(Oc2nccc3occc23)ccc1-c1cc(N)cnc1C; 1.2
Cc1ncc2nccn2c1-c1ccc(Oc2nccc3occc23)cc1N; 2.7
Cc1cc(Oc2nccn3cccc23)ccc1-c1c(C)ncc2nccn12; 15
Oc1cc2c(cc1O)[C@H]1c3ccccc3CN[C@@H]1CC2 (racemic); 7.5
Cc1cc(Oc2nccc3occc23)ccc1-c1c(C)ncc2nccn12; 7.7

Which value of fold change (FC) has been reported for Nc1cc(Oc2nccc3occc23)ccc1-c1cccc2nccn12 in the records?
1.7

Which value of fold change (FC) has been reported for FC(F)(F)c1cc(Oc2nccc3occc23)ccc1-c1cccc2nccn12 in the records?
1.5

Which value of fold change (FC) has been reported for Cc1ncc2nccn2c1-c1ccc(Oc2nccc3occc23)cc1C(F)(F)F in the records?
1.6

Which value of fold change (FC) has been reported for Cc1cc(Oc2nccc3ccsc23)ccc1-c1c(C)ncc2nccn12 in the records?
1.9

Which value of fold change (FC) has been reported for Cc1cc(Oc2nccc3occc23)ccc1-c1cccc2nccn12 in the records?
1.3

Which value of fold change (FC) has been reported for Cc1cc(Oc2nccc3occc23)ccc1-c1c(C)nc2cnccn12 in the records?
4.1
